system-name: Estrogen Receptor (ERα) in MCF-7 cells (Homo sapiens (Human), UniProt P03372)
Sequence (P03372 whole entry): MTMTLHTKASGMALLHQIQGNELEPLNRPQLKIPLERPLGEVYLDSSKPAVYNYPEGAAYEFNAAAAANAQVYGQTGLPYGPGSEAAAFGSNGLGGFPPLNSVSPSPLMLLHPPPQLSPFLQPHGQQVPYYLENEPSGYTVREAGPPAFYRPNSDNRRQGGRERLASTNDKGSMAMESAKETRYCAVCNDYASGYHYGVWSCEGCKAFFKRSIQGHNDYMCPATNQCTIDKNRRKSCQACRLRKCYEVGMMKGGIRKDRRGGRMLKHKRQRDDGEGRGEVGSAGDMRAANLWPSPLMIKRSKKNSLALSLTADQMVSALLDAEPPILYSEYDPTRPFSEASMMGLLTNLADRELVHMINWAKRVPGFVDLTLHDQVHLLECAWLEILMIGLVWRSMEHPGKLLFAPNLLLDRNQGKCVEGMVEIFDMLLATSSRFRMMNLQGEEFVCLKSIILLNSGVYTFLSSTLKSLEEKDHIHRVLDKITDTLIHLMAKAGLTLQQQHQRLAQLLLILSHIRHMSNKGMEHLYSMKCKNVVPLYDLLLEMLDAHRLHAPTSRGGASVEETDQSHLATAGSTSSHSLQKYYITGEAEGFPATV
assay-comment: MCF-7 ER down-regulation assay (immuno-fluorescence)
quantity: IC50

Examples with answers:
{"molecule": "COc1ccc(O[C@H](C)CNCCCF)cc1[C@@H]1c2[nH]c3ccccc3c2C[C@@H](C)N1CC(F)(F)CO [Example 47]", "IC50": "11 nM"}
{"molecule": "COc1ccc(OCCNCCCF)c(C)c1[C@@H]1c2[nH]c3ccccc3c2C[C@@H](C)N1CC(F)(F)F [Example 26]", "IC50": "0.16 nM"}
{"molecule": "C[C@@H]1Cc2c([nH]c3ccccc23)[C@@H](c2c(Cl)ccc(OCCNCCCF)c2Cl)N1C[C@H](C)C(=O)O [Example 128]", "IC50": "1.1 nM"}
{"molecule": "C[C@@H]1Cc2c([nH]c3ccccc23)[C@@H](c2cc(OCCNCCCF)ccc2Cl)N1CC(F)(F)CO [Example 44]", "IC50": "0.14 nM"}

Which IC50 value is on record for COc1ccc(OC[C@H](C)NCCCF)cc1[C@@H]1c2[nH]c3ccccc3c2C[C@@H](C)N1CC(F)(F)CO [Example 49] ?
0.15 nM

Which IC50 value is on record for COCc1ccc(OCCNCCCF)cc1[C@@H]1c2[nH]c3ccccc3c2C[C@@H](C)N1CC(F)(F)F [Example 71] ?
2 nM

Which IC50 value is on record for C[C@@H]1Cc2c([nH]c3ccccc23)[C@@H](c2nccc(OCCNCCCF)c2F)N1CC(F)(F)F [Example 92] ?
0.4 nM

Which IC50 value is on record for C[C@@H]1Cc2c([nH]c3ccccc23)[C@@H](c2cccc(OCCNCCCF)c2Cl)N1CC(F)(F)F [Example 25] ?
0.25 nM

Which IC50 value is on record for COc1cc(F)c(OCCNCCCF)cc1[C@@H]1c2[nH]c3ccccc3c2C[C@@H](C)N1CC(F)(F)F [Example 28] ?
0.8 nM

Which IC50 value is on record for Cc1c(OCCNCCCF)ccc(F)c1[C@@H]1c2[nH]c3ccccc3c2C[C@@H](C(F)F)N1C[C@H](C)C(=O)O [Example 137] ?
0.52 nM

Which IC50 value is on record for C[C@@H]1Cc2c([nH]c3ccccc23)[C@@H](c2cncc(OCCNCCCF)c2)N1CC(F)(F)F [Example 101] ?
27 nM

Which IC50 value is on record for Cc1ccc2[nH]c3c(c2c1)C[C@@H](C)N(CC(F)(F)CO)[C@@H]3c1c(F)ccc(OCCNCCCF)c1F [Example 63] ?
0.32 nM

---

assay-comment: Thermodynamic solubility (shake-flask)
Assay type: physicochemical
condition-context: aqueous phosphate buffer, 25 °C, pH 7.4, aqueous buffer, thermodynamic from solid, phosphate buffer pH 7.4, 24 hours
quantity: solubility at 24 h (µM)
Give just the number in µM; leave the unit off.

{"cpd-smiles": "COc1cc(F)c(OCCNCCCF)cc1[C@@H]1c2[nH]c3ccccc3c2C[C@@H](C)N1CC(F)(F)F", "unit-annotation": "µM", "solubility at 24 h": 40}
{"cpd-smiles": "C[C@@H]1Cc2c([nH]c3cc(F)ccc23)[C@@H](c2c(F)ccc(OCCNCCCF)c2F)N1CC(F)(F)CO", "unit-annotation": "µM", "solubility at 24 h": 446}

Which solubility at 24 h value is on record for `C[C@@H]1Cc2c([nH]c3ccccc23)[C@@H](c2cccc(OCCNCCCF)c2Cl)N1CC(F)(F)F` ?
19

Which solubility at 24 h value is on record for `C[C@@H]1Cc2c([nH]c3cccc(F)c23)[C@@H](c2c(F)ccc(OCCNCCCF)c2F)N1CC(F)(F)CO` ?
302

---

assay-comment: Log D (shake flask, 1-octanol/aqueous buffer)
Type: physicochemical
condition-context: 1-octanol/aqueous buffer, pH 7.4, pH 7.4
# binarize logD: threshold 3 inclusive, high side 1, low side 0

Consider the worked cases shown below.
{"compound": "Cc1c(OCCN(C)CCCF)ncc(F)c1[C@@H]1c2[nH]c3ccccc3c2C[C@@H](C)N1C(C)CC(=O)O (single isomer, unassigned)", "classification": 0}
{"compound": "C[C@@H]1Cc2c([nH]c3ccccc23)[C@@H](c2cccc(OCCNCCCF)c2Cl)N1CC(F)(F)F", "classification": 1}
{"compound": "Cc1c(OCCN(C)CCCF)ccc(F)c1[C@@H]1c2[nH]c3ccccc3c2C[C@@H](C(F)(F)F)N1C[C@H](C)C(=O)O", "classification": 0}
{"compound": "CC(CN1[C@H](c2c(Cl)ccc(OCCNCCCF)c2Cl)c2[nH]c3ccc(F)cc3c2C[C@H]1C)C(=O)O (single isomer, unassigned)", "classification": 0}
{"compound": "COc1ccc(NCCNCCCF)nc1[C@@H]1c2[nH]c3ccccc3c2C[C@@H](C)N1CC(F)(F)F", "classification": 0}
{"compound": "C[C@@H]1Cc2c([nH]c3ccccc23)[C@@H](c2c(F)cnc(OCCNCCCF)c2F)N1CC1(F)CC1", "classification": 1}
{"compound": "COc1cnc(NCCNCCCF)cc1[C@@H]1c2[nH]c3ccccc3c2C[C@@H](C)N1CC(F)(F)F", "classification": 0}
{"compound": "Cc1ccc2[nH]c3c(c2c1)C[C@@H](C)N(CC(F)(F)CO)[C@@H]3c1c(F)ccc(OCCNCCCF)c1F", "classification": 1}
{"compound": "C[C@@H]1Cc2c([nH]c3ccccc23)[C@@H](c2cc(OCCNCCCF)ccc2CO)N1CC(F)(F)F", "classification": 0}
{"compound": "C[C@@H]1Cc2c([nH]c3ccccc23)[C@@H](c2c(F)ccc(OCCNCCCF)c2F)N1CC1(F)COC1", "classification": 0}

Is it the case that `Cc1ccc(OCCNCCCF)c(C)c1[C@@H]1c2[nH]c3ccccc3c2C[C@@H](C)N1CC(F)(F)F` has logD reaching or exceeding 3?
1

Is it the case that `Cc1c(NCCNCCCF)ccnc1[C@@H]1c2[nH]c3ccccc3c2C[C@@H](C)N1CC(F)(F)F` has logD reaching or exceeding 3?
0

Is it the case that `Cc1c(OCCNCCCF)ncnc1[C@@H]1c2[nH]c3ccccc3c2C[C@@H](C)N1CC(F)(F)CO` has logD reaching or exceeding 3?
0

Is it the case that `Cc1c([C@@H]2c3[nH]c4ccccc4c3C[C@@H](C)N2CC(F)(F)CO)ccnc1OCCNCCCF` has logD reaching or exceeding 3?
0

Is it the case that `COc1ncc(NCCNCCCF)cc1[C@@H]1c2[nH]c3ccccc3c2C[C@@H](C)N1CC(F)(F)F` has logD reaching or exceeding 3?
0

Is it the case that `C[C@@H]1Cc2c([nH]c3ccccc23)[C@@H](c2cc(OCCNCCCF)ccc2C#N)N1CC(F)(F)F` has logD reaching or exceeding 3?
1

Is it the case that `C[C@@H]1Cc2c([nH]c3ccccc23)[C@@H](c2cc(OCCNCCCF)ncc2F)N1CC(F)(F)F` has logD reaching or exceeding 3?
1

---

Here the recorded logD is given for each entry.
assay-comment: Log D (shake flask, 1-octanol/aqueous buffer)
Assay type: physicochemical
condition-context: 1-octanol/aqueous buffer, pH 7.4, pH 7.4
Could you keep your reply to the number by itself?

{"cpd-smiles": "COc1ccc(O[C@H](C)CNCCCF)cc1[C@@H]1c2[nH]c3ccccc3c2C[C@@H](C)N1CC(F)(F)CO", "measurement": 2.7}

Which logD value is on record for `COc1ccc(OC[C@H](C)NCCCF)cc1[C@@H]1c2[nH]c3ccccc3c2C[C@@H](C)N1CC(F)(F)CO` ?
2.8

Which logD value is on record for `Cc1c(NCCNCCCF)ccc(F)c1[C@@H]1c2[nH]c3ccccc3c2C[C@@H](C)N1C[C@H](C)C(=O)O` ?
0.5

Which logD value is on record for `COc1ccc(OCCNCCCF)c(F)c1[C@@H]1c2[nH]c3ccccc3c2C[C@@H](C)N1CC1(F)COC1` ?
2.4

Which logD value is on record for `Cc1c(OCCNCCCF)ccc(F)c1[C@@H]1c2[nH]c3ccccc3c2C[C@@H](C)N1CC(F)(F)C(=O)O` ?
1.8

Which logD value is on record for `C[C@@H]1Cc2c([nH]c3ccccc23)[C@@H](c2cccc(OCCNCCCF)n2)N1CC(F)(F)F` ?
3.7

Which logD value is on record for `C[C@@H]1Cc2c([nH]c3ccccc23)[C@@H](c2c(F)ccc(OCCN(C)CCCF)c2C(F)F)N1C[C@H](C)C(=O)O` ?
1.5

Which logD value is on record for `C[C@@H]1Cc2c([nH]c3ccccc23)[C@@H](c2cc(OCCNCCCF)ncn2)N1CC(F)(F)F` ?
4.1

Which logD value is on record for `C[C@@H]1Cc2c([nH]c3ccccc23)[C@@H](c2c(F)cnc(OCCNCCCF)c2F)N1CC(F)(F)F` ?
3.6
